# Tested on: K103N RT mutant VSV-G pseudotyped HIV-1 vector
# Type: cell-based
# experimental.context: read-out: Antiviral EC50 K103N
pEC50: −log10 of the molar value.
Measured pEC50, listed per entry for reference.
quantity.kind: pEC50

>>> readout_number("Cc1ccnc2c1NC(=O)c1cccnc1N2C1CC1")
6.08
>>> readout_number("Clc1ccccc1-c1nc2ccccn2c1NC1CCCCC1")
5.49
>>> readout_number("Cc1cn([C@H]2C[C@H](N=[N+]=[N-])[C@@H](CO)O2)c(=O)[nH]c1=O")
7.85
